Where do the numbers come from? From patent US20150166523A1.

Target: human orexin-1 receptor (hOX1R) (Homo sapiens)
Sequence (O43613 whole entry): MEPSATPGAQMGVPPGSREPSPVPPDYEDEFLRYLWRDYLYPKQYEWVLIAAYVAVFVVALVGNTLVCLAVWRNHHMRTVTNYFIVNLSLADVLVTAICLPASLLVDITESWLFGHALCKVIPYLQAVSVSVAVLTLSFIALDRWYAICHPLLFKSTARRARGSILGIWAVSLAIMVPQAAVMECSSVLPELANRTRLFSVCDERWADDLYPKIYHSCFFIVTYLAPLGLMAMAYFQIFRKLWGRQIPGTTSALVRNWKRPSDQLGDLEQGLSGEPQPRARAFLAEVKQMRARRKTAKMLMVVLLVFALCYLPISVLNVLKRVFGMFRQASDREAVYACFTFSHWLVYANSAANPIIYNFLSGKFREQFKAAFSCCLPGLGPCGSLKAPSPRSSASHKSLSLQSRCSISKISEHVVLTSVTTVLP
Test: Measurement of orexin antagonistic activity (intracellular Ca2+ fluorescence, FDSS) on hOX1R
Conditions: CHO cells forcibly expressing hOX1R; Fluo-4AM; ligand peptide (substituted human orexin-A) 300 pM; compound preincubated 30 minutes; read-out: IC50 Value OX1
pIC50: −log10 of the molar value.
Recorded pIC50 for the following compounds
readoutLabel: pIC50

- CCN(C(=O)c1cc(C)ccc1-n1nccn1)[C@@H](C)Cn1cc(-c2ccc(O)cc2)nn1 [Example 100]: 7.98
- CCN(C(=O)c1cc(F)ccc1-n1nccn1)[C@@H](C)Cn1cc(-c2ccc(F)cn2)nn1 [Example 78]: 7.68
- CC[C@@H](Cn1ccc(-c2ccc(F)cn2)n1)N(C)C(=O)c1cc(C)ccc1-n1nccn1 [Example 24]: 8.01
- Cc1ccc(-n2nccn2)c(C(=O)N(C)[C@@H](C)Cn2cc(-c3ccc(F)cc3)cn2)n1 [Example 28]: 7.73

---

Molecular target: orexin-2 receptor (hOX2R) (Homo sapiens, UniProt O43614)
Construct: expressed in transfected cells; host or cells: Chinese hamster ovary (CHO) cells
Experiment: Measurement of orexin antagonistic activity (intracellular Ca2+ fluorescence, FDSS) on hOX2R
Assay type: cell-based
Conditions: CHO cells forcibly expressing hOX2R; Fluo-4AM; ligand peptide (substituted human orexin-A) 3 nM; compound preincubated 30 minutes; read-out: IC50 Value OX2
Threshold-based label: IC50 under 0.01 µM gives true (1), IC50 not under 0.01 µM gives false (0).

• Cc1ccc(-n2nccn2)c(C(=O)N(CCN(C)C)[C@@H](C)Cn2cc(-c3ccc(F)cc3)nn2)c1 [Example 89] = false (0)
• COCCN(C(=O)c1cc(C)ccc1-n1nccn1)[C@@H](C)Cn1ccc(-c2ccc(F)cn2)n1 [Example 40] = false (0)
• CCN(C(=O)c1cc(C)ccc1-n1nccn1)C(C)Cc1cnn(-c2ccc(F)cn2)c1 (centres unmarked) [Example 74] = false (0)
• CCN(C(=O)c1cc(C)ccc1-c1ncccn1)[C@@H](C)Cc1noc(-c2ccc(F)cc2)n1 [Example 55] = true (1)

---

Biological target: orexin-2 receptor (hOX2R) (Homo sapiens)
Construct: expressed in transfected cells; host or cells: Chinese hamster ovary (CHO) cells
Sequence (O43614 1-444): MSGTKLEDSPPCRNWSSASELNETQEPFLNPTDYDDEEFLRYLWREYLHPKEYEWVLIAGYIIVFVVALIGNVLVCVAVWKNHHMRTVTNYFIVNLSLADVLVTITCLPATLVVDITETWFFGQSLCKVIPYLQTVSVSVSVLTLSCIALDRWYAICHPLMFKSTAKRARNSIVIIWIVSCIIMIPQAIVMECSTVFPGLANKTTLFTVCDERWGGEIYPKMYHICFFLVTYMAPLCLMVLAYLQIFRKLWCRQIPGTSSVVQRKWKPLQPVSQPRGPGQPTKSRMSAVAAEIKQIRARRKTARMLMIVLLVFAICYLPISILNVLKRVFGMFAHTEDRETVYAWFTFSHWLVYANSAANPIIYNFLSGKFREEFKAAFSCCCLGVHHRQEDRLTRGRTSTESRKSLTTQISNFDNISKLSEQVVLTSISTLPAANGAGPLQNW
Test: Measurement of orexin antagonistic activity (intracellular Ca2+ fluorescence, FDSS) on hOX2R
Format: cell-based
Settings: CHO cells forcibly expressing hOX2R; Fluo-4AM; ligand peptide (substituted human orexin-A) 3 nM; compound preincubated 30 minutes; read-out: IC50 Value OX2
Threshold-based label: IC50 under 40 nM gives TRUE, IC50 not under 40 nM gives FALSE.

- CCN(C(=O)c1cc(C)ccc1-c1ncccn1)[C@@H](C)Cn1cc(-c2ccc(F)cn2)cn1 [Example 35]: FALSE
- CCN(C(=O)c1cc(F)ccc1-c1ncccn1)[C@@H](C)Cn1ccc(-c2ccc(F)c(F)c2)n1 [Example 17]: TRUE
- CCN(C(=O)c1cc(C)ccc1-n1nccn1)[C@@H](C)Cn1cc(-c2cccc(O)c2)nn1 [Example 93]: TRUE
- CCN(C(=O)c1cc(C)ccc1-n1nccn1)[C@@H](C)Cn1nnc(-c2ccc(F)cc2)n1 [Example 62]: TRUE
- CCN(C(=O)c1cc(F)ccc1-n1nccn1)[C@@H](C)Cn1cc(-c2ccc(F)cn2)cn1 [Example 36]: FALSE
- C[C@@H](Cn1ccc(-c2ccc(F)cn2)n1)N(C)C(=O)c1ccccc1-n1nccn1 [Example 20]: FALSE
- CCN(C(=O)c1cc(Cl)ccc1-c1ncccn1)[C@@H](C)Cn1cc(-c2ccc(F)cn2)cn1 [Example 37]: FALSE
- CCN(C(=O)c1cc(C)ccc1-n1nccn1)[C@@H](C)Cn1cc(-c2ccccn2)nn1 [Example 94]: FALSE
- CCN(C(=O)c1cc(C)ccc1-c1ncccn1)[C@@H](C)Cn1cc(-c2ccc(F)cn2)nn1 [Example 79]: FALSE
- Cc1ccc(-n2nccn2)c(C(=O)N(CCO)[C@@H](C)Cn2ccc(-c3ccc(F)cn3)n2)c1 [Example 44]: TRUE
- CCN(C(=O)c1cc(C)ccc1-c1ncccn1)[C@@H](C)Cn1nnc(-c2ccc(F)cn2)n1 [Example 88]: FALSE
